Assay Method Text: LD50 /24 hours, intravenous route in mice (method of Miller and Tainter)
Test Context: mouse, in vivo, read-out: LD50 /24 hours/kg of body weight
Structures can show the parent of a compound that is named as a salt.
For each record, check the reported LD50 at 24 h: if it is below 70 mg/kg write True, else write False.

>>> class_assignment("COc1ccc(N2CCN(CCCN3CCCC3)CC2)cc1.Cl.Cl.Cl")
"False"
>>> class_assignment("Clc1ccccc1N1CCN(CCCNC2CCCCC2)CC1 [Derivative no. 6, trihydrochloride]")
"True"
>>> class_assignment("Cl.Cl.Clc1ccc(N2CCN(CCCN3CCCC3)CC2)cc1")
"True"
>>> class_assignment("Clc1ccc(N2CCN(CCCN3CCCCC3)CC2)cc1")
"True"
>>> class_assignment("Cc1ccc(N2CCN(CCCNC3CCCCC3)CC2)cc1")
"True"

###

Assay Method Text: LD50 /24 hours, intravenous route in mice (method of Miller and Tainter)
Test Context: mouse, in vivo, read-out: LD50 /24 hours/kg of body weight
Structures can show the parent of a compound that is named as a salt.
As shown below, each of these compounds has a reported LD50 at 24 h value.
Endpoint Label: LD50 at 24 h (mg/kg)

>>> obs_value("CCCNCCCN1CCN(c2cccc(C(F)(F)F)c2)CC1 [Derivative no. 4, dihydrochloride]")
57
>>> obs_value("CCCNCCCN1CCN(c2ccc(F)cc2)CC1 [Derivative no. 3, trihydrochloride]")
89
>>> obs_value("Clc1ccc(N2CCN(CCCN3CCOCC3)CC2)cc1 [Derivative no. 9, dimaleate]")
100
>>> obs_value("Cl.Cl.Cl.Clc1ccc(N2CCN(CCCNC3CCCCC3)CC2)cc1 [Derivative no. 5]")
41
